Could you please report measured apparent KD of MS2 coat protein for the items listed next?
# System: MS2 coat protein
# Measurement Protocol: apparent KD of MS2 coat protein; designed switch direction (-1 OFF switch, 1 ON switch): 1; higher = weaker reporter binding
# Settings: Eterna round: R95; input ligand: FMN 200 uM
Answers are plain numbers, in nM.

In the examples that follow, each entry is paired with its recorded apparent KD of MS2 coat protein.
Seq	Unit Tag	apparent KD of MS2 coat protein
GGUCCAGCCUGAGCUGGACCGAAGCGUGUACAUGAGGAUCACCCAUGUCAUGUACAAGCUUUUUGCUCGUCUUAUUG [JL-shm-2.10 JL Mod] (puzzle: Sensor for hsa-mir-208a)	nM	149
AGUCCAGCCAGAGCUGGACAAAAGCAUGUACAUGAGGAUCACCCAUGUCAUGUACAAGCUUUUUGCUCGUCUUAAUA [Mat - hsa-mir-208a - Mod of JL - D37] (puzzle: Sensor for hsa-mir-208a)	nM	632

Ask | Look up and state reported apparent KD of MS2 coat protein for UUAAGCAACGGGCAGGAUAUGUAUUAAUAUACAUGAGGAUCACCCAUGUGCAGGUGUAACACCUGACAGAAGGGCCAAUCGCUGC [Soteed - 10] (puzzle: Same State 2)
Reply | 82.1

====

# Test system: K4 kissing-loop RNA reporter;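 further: bound reporter read as fluorescence of individual clusters on recovered sequencing chips by microscopy, with normalized cluster intensities fitted with a binding model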
# Measurement Protocol: apparent KD of K4 kissing-loop reporter; higher = weaker reporter binding
# Settings: Eterna round: R107; input ligand: none
Would you kindly list apparent KD of K4 kissing-loop reporter for each of these sequences?
One number for each entry, in nM.

For every listed record, write down its apparent KD of K4 kissing-loop reporter.
1. CGCAGUGAUGUUGCGAGCAGCUACAGGGAAGGAGCGCUUUAGUAAGCAGGUAGGUCGCCCACGCAGUGAUGUUGCGUCAUAGGGU [Exclusion Arginine A GF 20]
2. AGUGAUGUUUUUUUUAAGAGUGAUGUUUUUCGAGGACCGGUACGGCCGCCACUCGAGUGAUGAGUGCGUUGUUGUGAUGUUUAGU [#11 K4 Tryptophan A Exclusion]

Reply |
1: 117; 2: 473

Provide the reported apparent KD of K4 kissing-loop reporter of each entry below, same order.
1. UGUCAUUGGUCUGAUACCAGAAGAAAUCUGGAGUGAUGUUCCAAGUACGACAAAAGUCGCUUCCCUUGGCAGCAGACCGAUGACU [TheoBS 21 #SwitchBubble 13 #StaticStem]
2. UGGAGUUGACGAAAAGUCAACUCCCGAGAAGGAGCGGACGAAAGUCCAGGUAGGUCGCUCACUACCAGUGAUGUUGGUACUUAAA
3. AGUACAGACACGGCCGCCACUCAGAAGAAGAUAGUAGUGAUGUUACUGAUGAUGAGAAUAAUAAAGAGGACCGGGUGUUGUGCAA [#09 K4 Tryptophan B Same State]

Reply |
638
181
125

Lab note: each sequence below needs its apparent KD of K4 kissing-loop reporter filled in.
1. AUUUUCAUUUUAUUAUAUAACUUUUCAGAAGGAGCGUGGAAGUUCACAGGUAGGUCGCUGAAUAUUGGACUAGUGAUGUUAGUUA [JR_Nu_SSArginiA_Sub022]
2. AAAGACUGACUGCAAUUAGCAGUCAGUCAACGAGGACCGGUACGGCCGCCACUCGGGUCCUAGAGUGAUGUUCUAAUAAUAUAAU [Default title]
3. GGCAGUGAUGUUGCCUAAGCAAUGCAUGCGGAGGAUAUUCGUUUGGGAAGAAGGCCGCAGCGUUCUCUCGAGUGAUGUUCGAGUA [Same State FMN A GF 20]

Reply |
1. 230
2. 432
3. 153

Quick one: give me apparent KD of K4 kissing-loop reporter for each item below, same order please.
1. AGACUUCACCGAAGGAGCGACGUAGCCUAGUGAUGUUAGGCGCGAGAGAAAUCUCGUAUACGUCAGGUAGGUCGCGGUGAAGUCA [Omei KL Arginine B SS C v4]
2. GGGAGUAGUGCGGCCGCCACUGAGAAAGAAGAAGAAUAUAGUGAUGUUAUAUAGGAAAGGAAGAACAGGACCGGGCAUUAGAGGG [SSTRyptB.C]
3. CCUAUCUCAUACGAUACCAGUCAAAAUAUAAUUAACCAGUGAUGUUGGAUUUACCAAGGAGACCCUUGGCAGCGUAUGGGAUAGG [Ex Theophylline B K4 18]
4. UGUAUGUGAUUUGAUACCAGACCAGCUGGUGGUAUCUGAGUGAUGUUCAGGUAGGUUUGGGUCCCUUGGCAGCAAAUCGCAUACU [KL-SSTheoB26]

Reply |
152
147
410
153
